- Subject of test: Mitogen-activated protein kinase 3 (Homo sapiens)
- Sequence (P27361 whole entry): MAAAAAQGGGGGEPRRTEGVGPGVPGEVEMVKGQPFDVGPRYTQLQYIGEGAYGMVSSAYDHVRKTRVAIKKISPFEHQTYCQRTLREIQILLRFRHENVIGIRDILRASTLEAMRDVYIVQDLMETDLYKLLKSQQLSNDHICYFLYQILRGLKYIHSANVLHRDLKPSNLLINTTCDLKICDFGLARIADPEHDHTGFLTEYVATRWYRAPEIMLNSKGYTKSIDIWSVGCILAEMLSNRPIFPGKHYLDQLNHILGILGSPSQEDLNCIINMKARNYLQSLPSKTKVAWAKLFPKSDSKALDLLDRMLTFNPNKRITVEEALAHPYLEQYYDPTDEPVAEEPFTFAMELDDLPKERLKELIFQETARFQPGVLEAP
- Assay comment: Inhibition of ERK1
Assay readout: pIC50
Answers are plain numbers, as −log10 of the molar value.

# Smiles input, Meas value
rows = [
    ("O=C1C(Cl)=C(N2C(=O)CCC2=O)C(=O)c2ccccc21", 4.08),
]

Q: Write down the reported pIC50 (system: Mitogen-activated protein kinase 3 (Homo sapiens)) of O=C1Cc2c([nH]c3ccc(Br)cc23)-c2ccccc2N1
Result: 4.70

---

- Subject of test: Serine/threonine-protein kinase Chk2 (Homo sapiens, UniProt O96017)
- Sequence (O96017 whole entry): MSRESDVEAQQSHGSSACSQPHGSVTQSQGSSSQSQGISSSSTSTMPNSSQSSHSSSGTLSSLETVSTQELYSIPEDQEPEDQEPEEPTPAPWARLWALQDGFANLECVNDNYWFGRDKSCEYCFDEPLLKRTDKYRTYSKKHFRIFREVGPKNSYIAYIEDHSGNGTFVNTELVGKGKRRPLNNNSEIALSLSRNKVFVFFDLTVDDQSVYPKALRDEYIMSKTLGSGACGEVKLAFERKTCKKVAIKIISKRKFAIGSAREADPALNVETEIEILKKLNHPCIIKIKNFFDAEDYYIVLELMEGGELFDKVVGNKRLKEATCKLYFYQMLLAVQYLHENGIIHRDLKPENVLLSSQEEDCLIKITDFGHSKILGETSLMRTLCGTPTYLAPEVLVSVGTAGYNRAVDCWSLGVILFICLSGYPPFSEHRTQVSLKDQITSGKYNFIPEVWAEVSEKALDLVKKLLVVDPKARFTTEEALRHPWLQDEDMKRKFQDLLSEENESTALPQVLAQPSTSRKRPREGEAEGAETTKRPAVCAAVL
Response field label takes satisfied when ΔTm is strictly below 6 °C and not satisfied in all other cases.

# Smiles input, Qualitative label
data = [
    ("CCCNC(=O)Nc1ccc(Oc2ncnc3cc(OC)c(OC)cc23)cc1Cl", "satisfied"),
]

Q: Answer whether the molecule CC(C)(C)n1nc(-c2ccc(Cl)cc2)c2c(N)ncnc21 has ΔTm strictly less than 6 °C
Result: satisfied

Q: State whether 6 °C exceeds ΔTm recorded for O=C1C=C2C(=Nc3c2c2c(c4c3=NC3=C4CCC=C3)C=NC=2)CC1 .
Result: not satisfied

---

Observed ΔTm values for STE20-like serine/threonine-protein kinase (Homo sapiens) (UniProt Q9H2G2) are listed in what follows.
Answers are plain numbers, in °C.

Known ΔTm results, listed for orientation:
# Compound, Unit descriptor, Meas value
measured = [
    ("COc1cc(OC)c(/C=C2\\C(=O)Nc3ccccc32)c(OC)c1", "°C", 0.1),
    ("Cl.Cn1cc(C2=C(c3ccc4cc5n(c4c3)CCC(CN)C5)C(=O)NC2=O)c2ccccc21 (configuration not stated)", "°C", 4.5),
    ("CN(C)c1ccc(CC2C(=O)Nc3ccccc32)cc1 (configuration not stated)", "°C", 0.8),
    ("O=c1c(-c2ccc(F)cc2)c(-c2ccncc2)[nH]n1-c1ccc(Cl)cc1", "°C", 2.4),
    ("COc1cc2ncnc(Nc3ccc(NC(=O)c4ccccc4)cc3)c2cc1OC", "°C", 0.1),
]

Parameters: items (list). Returns: ΔTm for each item.
1. O=C1Nc2ccc(S(=O)(=O)O)cc2/C1=C1/Nc2ccccc2/C1=N\O
2. C/C(O)=C(\C#N)C(=O)Nc1cc(Br)ccc1Br
3. O=C(Nc1cccc(Nc2cc(Nc3cccc(C(F)(F)F)c3)ncn2)c1)C1CC1
4. COc1ccc(S(=O)(=O)N(CCO)c2ccccc2CN(C)C/C=C/c2ccc(Cl)cc2)cc1
5. N#C/C(=C\c1ccc(O)c(O)c1)C(=O)Nc1ccccc1

Result:
1.1
0.4
3.2
1.1
1.8

---

Give measured ΔTm for each item. Keep answers brief.
- Subject of test: Calcium/calmodulin-dependent protein kinase type 1G (Homo sapiens)
Numbers only, in °C.

Below are 5 compounds. Give each one its ΔTm.
1. Nc1cccc(-c2cc3c(Oc4cccc(O)c4)ncnc3[nH]2)c1
2. Cc1cc(Nc2nc(-c3ccccc3)nc3ccccc23)n[nH]1
3. CN(C)CCCn1cc(C2=C(c3c[nH]c4ccccc34)C(=O)NC2=O)c2ccccc21
4. C[C@@H]1C[C@H]2O[C@@H]2/C=C\C=C\C(=O)Cc2c(Cl)c(O)cc(O)c2C(=O)O1
5. CC(C)(C)c1cc(C=C2C(=O)C=CC2=O)cc(C(C)(C)C)c1O

Result:
1
3.7
0.6
0.6
-0.4

---

- Subject of test: Insulin-like growth factor 1 receptor (Homo sapiens)
- Sequence (P08069 31-736 limits assumed): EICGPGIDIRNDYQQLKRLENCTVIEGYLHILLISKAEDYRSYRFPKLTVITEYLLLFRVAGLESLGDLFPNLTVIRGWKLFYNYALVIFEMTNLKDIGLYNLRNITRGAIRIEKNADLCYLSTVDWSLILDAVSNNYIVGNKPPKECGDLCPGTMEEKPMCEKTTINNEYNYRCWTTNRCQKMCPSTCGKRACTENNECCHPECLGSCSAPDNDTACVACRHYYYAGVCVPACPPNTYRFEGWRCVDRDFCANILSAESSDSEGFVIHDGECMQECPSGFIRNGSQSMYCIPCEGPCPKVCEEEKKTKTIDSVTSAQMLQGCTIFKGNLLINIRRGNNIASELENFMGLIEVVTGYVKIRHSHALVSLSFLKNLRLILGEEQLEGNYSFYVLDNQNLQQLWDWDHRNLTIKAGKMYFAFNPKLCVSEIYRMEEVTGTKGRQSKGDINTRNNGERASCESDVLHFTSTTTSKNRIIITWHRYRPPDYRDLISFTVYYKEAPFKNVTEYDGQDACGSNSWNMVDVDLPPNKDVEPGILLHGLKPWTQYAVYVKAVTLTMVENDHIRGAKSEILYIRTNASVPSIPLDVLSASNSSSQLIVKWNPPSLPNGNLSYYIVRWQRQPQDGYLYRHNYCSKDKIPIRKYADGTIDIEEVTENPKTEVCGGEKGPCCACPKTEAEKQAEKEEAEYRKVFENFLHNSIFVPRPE
- Sequence (P08069 741-1367 limits assumed): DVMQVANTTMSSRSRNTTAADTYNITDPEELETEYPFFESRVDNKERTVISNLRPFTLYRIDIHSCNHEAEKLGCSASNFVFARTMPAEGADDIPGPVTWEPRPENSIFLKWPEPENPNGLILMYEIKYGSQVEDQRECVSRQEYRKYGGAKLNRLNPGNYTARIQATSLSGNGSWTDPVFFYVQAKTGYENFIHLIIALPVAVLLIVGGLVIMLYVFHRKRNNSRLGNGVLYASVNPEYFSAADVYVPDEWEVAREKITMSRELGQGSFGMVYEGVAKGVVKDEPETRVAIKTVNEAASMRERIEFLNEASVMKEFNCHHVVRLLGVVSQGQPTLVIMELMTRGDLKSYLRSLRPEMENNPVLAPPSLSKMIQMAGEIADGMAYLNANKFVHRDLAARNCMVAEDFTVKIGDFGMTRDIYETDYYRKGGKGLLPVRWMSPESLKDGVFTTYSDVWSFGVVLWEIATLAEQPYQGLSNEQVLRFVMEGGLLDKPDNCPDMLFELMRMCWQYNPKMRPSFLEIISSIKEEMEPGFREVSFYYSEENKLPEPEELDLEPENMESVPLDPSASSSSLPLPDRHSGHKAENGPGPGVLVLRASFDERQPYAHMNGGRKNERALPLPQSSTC
- Assay comment: Inhibition of IGF1R autophosphorylation
Assay readout: IC50

Q: Look up Insulin-like growth factor 1 receptor (Homo sapiens) data: IC50 of COc1ccc(Cl)cc1NC(=O)Nc1cc(C)nc2ccccc12 , then report it.
Result: < 1000 nM
